Tested on: SK-MEL-28 melanoma
Experiment: NCI tumour cell line growth inhibition, 48 h; in the data active = GI50 below about 0.43 µM; inactive = the rest
Use one of these outcomes when replying: class 1 for active, class 0 for inactive

Take a look at these entries with their results.
compound=O=C1CC(=O)OC(c2ccc([N+](=O)[O-])cc2)O1 answer_label="class 0"
compound=COc1ccc(Cn2c(Cl)c(/C=C3/C(=O)Nc4ccccc43)c3cc(OC)c(C)cc32)cc1 answer_label="class 0"
compound=COc1cc(/C=C2/N=C(c3ccccc3)N(C3=NNC4(C(=O)N3)c3ccccc3-c3ccccc34)NC2=O)ccc1O answer_label="class 0"

Lookup: Just curious, what result did Cc1cc(-c2nnc3n2CCCCC3)c(C)n1-c1ccc(Cl)c(Cl)c1 get here?
Found: class 0

Lookup: Please indicate how the test categorized CSc1ccc(/C=C2\C=C(CC(=O)NCc3ccc(C(=O)c4ccccc4)cc3)c3cc(F)ccc32)cc1 .
Found: class 1

Lookup: Call for entry Cc1cc(N/N=C/c2nc(-c3ccc(Cl)cc3)oc2C)c2cc(Cl)ccc2n1 :
Found: class 0

Lookup: Which outcome was entered for the compound CCOc1c(Cl)cc(CNC(C)C(O)c2ccccc2)cc1OC (centres undefined) in this test?
Found: class 0

Lookup: Assay result, entry CC(=O)Nc1ccc(S(=O)(=O)NNC(=O)c2cccnc2Nc2ccc(Cl)cc2)cc1 — outcome?
Found: class 0

Lookup: // outcome(item) with item = COC(=O)CCCCCN=Cc1c(O)c(O)c(C(C)C)c2cc(C)c(-c3c(C)cc4c(C(C)C)c(O)c(O)c(C=NCCCCCC(=O)OC)c4c3O)c(O)c12
Found: class 0

---

System: SNB-78 CNS
Test: NCI tumour cell line growth inhibition, 48 h
Collected TGI values appear next to each entry.

Worked cases, TGI given:
compound="OC12CC/C(=N/OCc3ccccc3)CC1c1ccccc12 (configuration not stated)" readout_type=TGI readout_value="> 100 µM"
compound=COc1cc2c(cc1OC)-c1c3c(cc4c1[C@@H](C2)N(C)CC4)OCO3 readout_type=TGI readout_value="43.9 µM"
compound="N#CC(NNC(=O)c1ccccc1O)c1cccc(O)c1 (configuration not stated)" readout_type=TGI readout_value="> 100 µM"
compound="CC1(Cl)CC2C(CC1Sc1nnnn1-c1ccccc1)C2(C)C (configuration not stated)" readout_type=TGI readout_value="> 100 µM"
compound=O=C(OC[C@H]1O[C@@H](OC(=O)c2cc(O)c(O)c(O)c2)[C@H](OC(=O)c2cc(O)c(O)c(O)c2)[C@@H](OC(=O)c2cc(O)c(O)c(O)c2)[C@@H]1OC(=O)c1cc(O)c(O)c(O)c1)c1cc(O)c(O)c(O)c1 readout_type=TGI readout_value="80.3 µM"
compound=CN=C1SC(=Nc2ccc(N(C)C)cc2)N1C readout_type=TGI readout_value="> 100 µM"

// below: TGI requested for another compound
Record summary for CC(=O)OC1[C@H]2c3cc4c(cc3CN3CCC(=C[C@@H]1O)C23)OCO4 (some centres not stated) : reported TGI = > 100 µM

---

System: HT29 colon
Test: NCI tumour cell line growth inhibition, 48 h
Readout Type: TGI

Form: item BrC1(Br)C2/C=C\CCCCC21 (centres undefined) ; test system HT29 colon; TGI: > 100 µM

---

The molecules listed here are annotated with their TGI.
System: IGROV1 ovarian
Test: NCI tumour cell line growth inhibition, 48 h

Observe how each entry below is paired with its result.
molecule=CSc1cc(N)ccc1N=Nc1ccc(S(N)(=O)=O)cc1 target_under_test="IGROV1 ovarian" readout_type=TGI readout_value="72.3 µM"
molecule=Nc1cc(N2CCCC2)nc(=O)n1Cc1ccccc1 target_under_test="IGROV1 ovarian" readout_type=TGI readout_value="> 100 µM"

Kindly review the next molecule as well.
In plain terms, O=C1C2Cc3ccccc3CN2C(=O)N1CCN1CCCC1 (stereo not given) has a documented TGI of > 100 µM

---

System: DMS 114 small cell lung
Experiment: NCI tumour cell line growth inhibition, 48 h
Readout Type: TGI (µM)
Supply the numeric figure in µM, leaving out any unit text.

Previously resolved entries follow.
compound="CC(=O)Oc1ccc(C2COc3cc(OC(C)=O)c(OC(C)=O)cc3C2)cc1 (stereo unspecified)" readout_type=TGI readout_value=17.1
compound=Cc1c2cc[n+](C)cc2c(C)c2c1[nH]c1ccc(O)c(OCC(F)(F)F)c12 readout_type=TGI readout_value=8.04
compound=CN[C@@H]1C[C@H]2O[C@@](C)([C@@H]1OC)n1c3ccccc3c3c4c(c5c6ccccc6n2c5c31)C(=O)N[C@@H]4O readout_type=TGI readout_value=1.58

Looking up COC(=O)C1=C(CS(=O)c2ccccc2[N+](=O)[O-])ON(C)C1c1ccccc1 (stereo unspecified) , I see its TGI listed as 65.5

# TGI (compound: N#CC(NNC(=O)c1ccccc1O)c1cccc(O)c1 (stereo unspecified) ) is 11.1

# compound C[C-](O)O.O/C(=C\[C-](O)c1ccccc1)c1ccccc1.O/C(=C\[C-](O)c1ccccc1)c1ccccc1.[Nd+3] (stereo unspecified) ; its TGI = 57

Value of TGI reported for the compound C=C1C(=O)OC2/C=C(\C=O)CC/C=C(\C)C(O)C[C@@H]12 (stereo partly specified) is 26.6

GET /value?item= O=c1ccc(=O)c2c(=O)c3ccccc3c(=O)c1=2 &field=TGI returns 95.1

Documented TGI of CCOC(=O)CC1NC(=O)CS1 (stereo unspecified) : 57.8

CCOC(=O)COS(=O)(=O)C(F)(F)F yielded TGI of 31.7

---

Test system: 786-0 renal
Assay: NCI tumour cell line growth inhibition, 48 h
Readout Type: TGI

These solved cases illustrate the format of a correct answer.
compound=CSc1c(C#N)c2n(c3ccccc13)c1ccccc1[n+]2C target_under_test="786-0 renal" readout_value="> 100 µM"
compound=O=C1c2ccccc2-n2c1nc1ccccc1c2=O target_under_test="786-0 renal" readout_value="> 100 µM"
compound=O=C(O)CSc1ncccc1[N+](=O)[O-] target_under_test="786-0 renal" readout_value="> 100 µM"
compound=Cc1c2cc[n+](C)cc2c(C)c2c1[nH]c1ccc(O)c(OCC(F)(F)F)c12 target_under_test="786-0 renal" readout_value="9.35 µM"
compound="C=C=C(C(=O)OC)S(=O)c1ccc([N+](=O)[O-])cc1[N+](=O)[O-] (configuration not stated)" target_under_test="786-0 renal" readout_value="> 66.6 µM"

TGI measured on COc1cc(C2SCC(=O)N2c2ccc(Oc3ccc(Cl)cc3)c(Cl)c2)cc(OC)c1OC (configuration not stated) = 33.9 µM

In plain terms, S=c1nc(-c2cccnc2)[nH][nH]1 has a documented TGI of > 100 µM

---

System: SN12C renal
Assay: NCI tumour cell line growth inhibition, 48 h
Listed here: items and their measured TGI.

compound=Oc1ccccc1-c1nc2c3ccccc3c3ccccc3c2[nH]1 readout_value="22.6 µM"

Result for CC(C)[C@H]1C(=O)N[C@@H](CCCN=C(N)N)C(=O)NCC(=O)N[C@@H](CC(=O)O)C(=O)N[C@H](Cc2ccccc2)C(=O)N1C , tested on SN12C renal, TGI: > 25.3 µM

# TGI measured on SN12C renal for item C=C(C)C1CC=C(C)C2(C1)OCC(C)(C)C(C)O2 (centres undefined) = 33.4 µM

---

Test system: BT-549 breast
Assay: NCI tumour cell line growth inhibition, 48 h
Readout Type: TGI

Recorded TGI for CN(C)CCNc1ncnc2nc(-c3ccc4ccccc4c3)[nH]c12 on BT-549 breast was > 100 µM

Record O=C1CC(=O)OC(c2ccc([N+](=O)[O-])cc2)O1 / BT-549 breast, TGI recorded as 3.87 µM

---

Test system: PC-3 prostate
Experiment: NCI tumour cell line growth inhibition, 48 h; in the data active = GI50 below about 0.43 µM; inactive = the rest
Permitted responses: yes (1) for active, no (0) for inactive

query_smiles=CSc1ccc(/C=C2\C=C(CC(=O)NCc3ccc(C(=O)c4ccccc4)cc3)c3cc(F)ccc32)cc1 answer_label="yes (1)"
query_smiles=COc1cc(/C=C2/N=C(c3ccccc3)N(C3=NNC4(C(=O)N3)c3ccccc3-c3ccccc34)NC2=O)ccc1O answer_label="no (0)"
query_smiles=Cc1c2ccc(N(C)c3ccnc(Nc4cccc(S(N)(=O)=O)c4)n3)cc2nn1C answer_label="no (0)"
query_smiles=COc1cc2nc(-c3ccc(C(F)(F)F)cc3)cc(OCCCN3CCCCC3)c2cc1OC answer_label="no (0)"
query_smiles=O=C1CCCN1CC#CCN1CCCC1 answer_label="no (0)"

Okay, next one:
Lookup: Identify the outcome logged in this assay for the compound shown: COc1ccc(Cl)cc1Nc1nc(C(F)(F)F)ccc1C(=O)N/N=C/c1cc(OC)c(OC)c(OC)c1
Found: no (0)

---

Listing: GI50 of selected compounds
Tested on: OVCAR-4 ovarian
Assay: NCI tumour cell line growth inhibition, 48 h

These solved cases illustrate the format of a correct answer.
compound=COc1ccc(Cn2c(Cl)c(/C=C3/C(=O)Nc4ccccc43)c3cc(OC)c(C)cc32)cc1 readout_value="4.01 µM"
compound=COC(=O)CCC1=C(C)/C(=C/c2[nH]c(-c3ccc[nH]3)cc2OC)N=C1C readout_value="0.626 µM"
compound="C[C-](O)O.O/C(=C\\[C-](O)c1ccccc1)c1ccccc1.O/C(=C\\[C-](O)c1ccccc1)c1ccccc1.[Nd+3] (centres undefined)" readout_value="15.9 µM"
compound=FCc1ncc(-c2ccc(C(F)(F)F)cc2)c(NC2CCCCCC2)n1 readout_value="> 10 µM"
compound="C[C@]12CC[C@@H]3c4ccc(O)cc4C(O)C[C@H]3[C@@H]1CCC2=O (some centres undefined)" readout_value="61.1 µM"

// recorded GI50 for CC(C)[C@H]1C(=O)N[C@@H](CCCN=C(N)N)C(=O)NCC(=O)N[C@@H](CC(=O)O)C(=O)N[C@H](Cc2ccccc2)C(=O)N1C : > 100 µM

In plain terms, O=C1CCCN1CC#CCN1CCCC1 has a documented GI50 of > 100 µM

Reported GI50 ( COc1cc(/C=C2/N=C(c3ccccc3)N(C3=NNC4(C(=O)N3)c3ccccc3-c3ccccc34)NC2=O)ccc1O ) = 27.4 µg/mL

The compound Cc1cc(N/N=C/c2nc(-c3ccc(Cl)cc3)oc2C)c2cc(Cl)ccc2n1 showed GI50 equal to 1.68 µM
